// values below are reported Average EC50, viability assay, OCIM1 (CD45+), 5 days
assaySystem: T1, human CD45 (human, UniProt P08575 26-1306)
T1 sequence: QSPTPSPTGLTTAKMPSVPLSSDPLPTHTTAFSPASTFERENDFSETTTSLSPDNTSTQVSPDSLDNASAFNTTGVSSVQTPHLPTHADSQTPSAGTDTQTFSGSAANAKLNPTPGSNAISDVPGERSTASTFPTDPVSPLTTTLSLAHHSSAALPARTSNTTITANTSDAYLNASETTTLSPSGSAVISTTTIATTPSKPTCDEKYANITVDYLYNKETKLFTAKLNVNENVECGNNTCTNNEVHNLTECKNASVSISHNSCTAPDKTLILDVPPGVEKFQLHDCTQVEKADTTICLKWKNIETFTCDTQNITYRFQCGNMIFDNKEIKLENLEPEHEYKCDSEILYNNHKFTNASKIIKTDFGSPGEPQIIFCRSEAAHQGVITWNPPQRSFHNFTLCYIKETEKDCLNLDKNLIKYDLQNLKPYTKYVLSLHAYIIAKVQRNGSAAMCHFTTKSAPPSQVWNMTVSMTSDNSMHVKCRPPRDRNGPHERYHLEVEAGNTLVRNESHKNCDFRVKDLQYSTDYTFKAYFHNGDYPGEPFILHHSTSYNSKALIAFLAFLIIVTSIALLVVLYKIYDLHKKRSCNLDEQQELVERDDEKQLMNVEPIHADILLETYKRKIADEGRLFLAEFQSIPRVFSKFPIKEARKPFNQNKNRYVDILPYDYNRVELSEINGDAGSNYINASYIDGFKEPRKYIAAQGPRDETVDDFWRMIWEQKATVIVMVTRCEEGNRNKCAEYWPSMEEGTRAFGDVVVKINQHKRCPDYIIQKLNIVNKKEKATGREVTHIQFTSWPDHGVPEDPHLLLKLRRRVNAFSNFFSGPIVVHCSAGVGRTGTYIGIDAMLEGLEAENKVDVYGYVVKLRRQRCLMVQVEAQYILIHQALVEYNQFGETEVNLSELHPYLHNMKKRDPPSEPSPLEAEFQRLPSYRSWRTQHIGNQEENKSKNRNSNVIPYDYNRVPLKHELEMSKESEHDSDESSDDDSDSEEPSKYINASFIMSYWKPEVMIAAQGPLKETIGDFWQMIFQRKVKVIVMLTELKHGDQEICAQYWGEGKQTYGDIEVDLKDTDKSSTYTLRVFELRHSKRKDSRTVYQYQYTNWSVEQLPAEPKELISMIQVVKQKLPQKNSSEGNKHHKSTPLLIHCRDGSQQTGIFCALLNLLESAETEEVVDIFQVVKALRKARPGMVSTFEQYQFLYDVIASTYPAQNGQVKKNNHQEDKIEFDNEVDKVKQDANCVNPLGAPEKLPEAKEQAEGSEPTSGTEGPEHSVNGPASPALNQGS
assay: cell-based or functional assay
# number only, unit pM dropped from output

>>> result("YTH54.12-B7 (antibody, V domains shown, PBD drug-linker B7 conjugated; sites and DAR not stated) VH: EVQLVESGGGLVQPGGSMKLSCAASGFTFSDYYMAWVRQAPKKGLEWVASMSFAGSSTYYGDSVKGRFTISRDNAKTTLYLQMNSLRSEDTATYYCARMYTTDYYLYWYFDFWGPGTMVTVSS VL: DVQMTQSPSYLAASPGESVSISCKASKSISNYLAWYQQKPGEANKILIYSGSTLQSGTPSRFSGSGSGTDFSLTIRNLEPEDFAVYYCQQYDEKPLTFGSGTKLEIKR")
1.07

Could you now look at the following binder, please?
Query (binder): YTH24.5-B4 (antibody, V domains shown, PBD drug-linker B4 (non-cleavable) conjugated; sites and DAR not stated) VH: QVNLLQSGAALVKPGASVKLSCKASSYTFTDYYIHWVKQSHGKTLEWIGYINPKSGFTNYNEKFRRKATLTVDKSTNTAYMDISRLTSEDSATYYCTRRTGVIPMDAWGQGASVTVSS VL: DVVMTQTPVSLSVSLGGQVSISCRSSQSFVSSDGNTYLNWYLQKPGQSPQLLIYKVSNRLSGVPDRFSGSGSGTDFTLKISRVEHDDLGVYYCGQASKIPLTFGSGTKLEIKR ; field requested: Average EC50, viability assay, OCIM1 (CD45+), 5 days
0.096
